Assay: blockers of ER-stress CHOP reporter expression – cell-based, unfolded protein response, luciferase reporter, primary screen (AID 2732);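 also: 0% = tunicamycin plus vehicle and 100% = wells without tunicamycin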
Conditions: CHO-K1 CHOP-promoter luciferase, tunicamycin-induced, 15-18 h; at 10 µM; stronger effect = higher value
The campaign covered roughly 220,000 compounds. About 8,200 (3.7%) were called active. The sample as a whole holds a higher share of actives than the screen did.
RESULT TYPE: inhibition (%)

                         structure_notation  result_type  assay_result
0  Cc1cc(N2CCN(C)CC2)nc2ccc(NC(=S)N3CCOCC3)cc12   inhibition          2.29
1  O=C(Oc1ccc(-c2nc(-c3ccccn3)no2)cc1)c1ccccc1   inhibition          83.7
2  Cc1ccc(C)c(SCc2nc3sc(C(=O)O)c(C)c3c(=O)[nH]2)c1   inhibition           5.2
